Test system: U2OS
Test: Multiplex assay against U2OS
Assay type: toxicity, cell-based
Conditions: human, 12 h, 10 µM, compound concentration 10 uM, replicate 2
Please use MET whenever Population Apoptotic (%) is not below 80%, and NOT MET whenever it is.

# Chem Smiles, Target Of Assay, Class Label
records = [
    ("COc1cc(N2CCN(C)CC2)ccc1Nc1ncc2c(n1)N(C)c1ccccc1C(=O)N2C", "U2OS", "NOT MET"),
    ("O=C(Nc1cccnn1)N1CCC(=Cc2cccc(Oc3ccc(C(F)(F)F)cn3)c2)CC1", "U2OS", "NOT MET"),
    ("O=C(Nc1ccc(-c2ccnc(Nc3ccc(N4CCOCC4)cc3)n2)cc1)[C@@H]1CCCN1", "U2OS", "NOT MET"),
    ("CCCS(=O)(=O)c1nc(NC2CC2)cc(-c2ccc3c(ccn3C3CC(C)(C)NC(C)(C)C3)c2)n1", "U2OS", "MET"),
    ("C=CCn1c(=O)c2cnc(Nc3ccc(N4CCN(C)CC4)cc3)nc2n1-c1cccc(C(C)(C)O)n1", "U2OS", "NOT MET"),
    ("CCN1CCN(Cc2ccc(Nc3ncc(F)c(-c4cc(F)c5nc(C)n(C(C)C)c5c4)n3)nc2)CC1.CS(=O)(=O)O", "U2OS", "MET"),
    ("O=C(Nc1ccc(-n2nc(-c3cccnc3)cc2C(F)(F)F)cn1)c1ccc(-c2ccccc2)c(F)c1", "U2OS", "NOT MET"),
    ("O=C(Nc1ccc(Cl)cc1)Nc1cccc(-c2cccc(N3CCCC3)n2)c1", "U2OS", "NOT MET"),
    ("NC(=O)c1cccc(-c2cc(Nc3ccc(OC(F)(F)F)cc3)ncn2)c1", "U2OS", "NOT MET"),
    ("Cl.Oc1ccc2c3c1O[C@H]1c4[nH]c5c(c4C[C@@]4(O)[C@@H](C2)N(CC2CC2)CC[C@]314)C[C@@]1(O)[C@H]2Cc3ccc(O)c4c3[C@@]1(CCN2CC1CC1)[C@H]5O4", "U2OS", "MET"),
    ("O=C1NC(=O)C(c2cnc3ccccn23)=C1c1cn2c3c(cc(F)cc13)CN(C(=O)N1CCCCC1)CC2", "U2OS", "MET"),
    ("O=C(Cc1ccc(-c2ccc(OCCN3CCOCC3)cc2)cn1)NCc1ccccc1", "U2OS", "NOT MET"),
    ("COc1cccc2cc(-c3nc([C@H]4CC[C@H](C(=O)O)CC4)n4ncnc(N)c34)[nH]c12", "U2OS", "NOT MET"),
    ("Cc1ccc2nc(NCCN)c3ncc(C)n3c2c1.O=C(O)C(F)(F)F.O=C(O)C(F)(F)F", "U2OS", "NOT MET"),
    ("Cc1cn(-c2cc(NC(=O)c3ccc(C)c(Nc4nccc(-c5cccnc5)n4)c3)cc(C(F)(F)F)c2)cn1", "U2OS", "NOT MET"),
    ("Cc1cc(C)c(S(=O)(=O)N(Cc2ccc(-c3cccc(S(C)(=O)=O)c3)cc2)Cc2ccc(C(F)(F)F)o2)c(C)c1", "U2OS", "NOT MET"),
    ("CCCn1c(=O)c2[nH]c(-c3cnn(Cc4cccc(C(F)(F)F)c4)c3)nc2n(CC)c1=O", "U2OS", "NOT MET"),
    ("S=C(NCCCc1c[nH]cn1)NCCCN(Cc1ccc(Cl)c(Cl)c1)c1ccc(Br)cn1", "U2OS", "MET"),
    ("CCc1cccc(CC)c1NC(=O)c1nn(C)c2c1CCc1cnc(Nc3ccc(N4CCN(C)CC4)cc3OC)nc1-2", "U2OS", "NOT MET"),
    ("CCc1cccc(CC)c1NC(=O)c1nn(C)c2c1CCc1cnc(Nc3ccc(C(=O)NC4CCN(C)CC4)cc3OC(F)(F)F)nc1-2", "U2OS", "NOT MET"),
    ("CCCS(=O)(=O)Nc1ccc(F)c(C(=O)c2c[nH]c3ncc(Cl)cc23)c1F", "U2OS", "NOT MET"),
    ("CCn1c(=O)c(-c2ccc(-c3cncs3)cc2Cl)cc2cnc(Nc3ccc(N4CCN(C)CC4)cc3)nc21", "U2OS", "NOT MET"),
    ("Cn1nc(C(F)(F)F)cc1-c1cnc(N2CCc3cc(S(=O)(=O)Nc4c(F)cc(Cl)cc4F)cc(N4CCCC4=O)c32)nc1", "U2OS", "NOT MET"),
    ("CN1CCN(C(=O)C(C)(C)c2ccc(C(=O)Nc3cn4cc(-c5cc(C(C)(C)C)cc(C(C)(C)C)c5)ccc4n3)cc2)CC1", "U2OS", "NOT MET"),
    ("CCn1cc(-c2ccnc3[nH]c(-c4cccc(CN(C)C)c4)cc23)c(-c2ccc(NC(=O)N(C)C)cc2)n1", "U2OS", "NOT MET"),
    ("CNc1cc(Oc2cc(C(=O)Nc3cc(N4CCN(C)CC4)cc(C(F)(F)F)c3)ccc2C)ncn1", "U2OS", "NOT MET"),
    ("CCN1CCN(c2ccc(Nc3cc(N(C)C(=O)Nc4c(Cl)c(OC)cc(OC)c4Cl)ncn3)cc2)CC1", "U2OS", "NOT MET"),
    ("CCOc1cc(C(=O)N2CCC(N3CCN(C)CC3)CC2)ccc1Nc1ncc2c(n1)N(C1CCCC1)c1ccccc1C(=O)N2C", "U2OS", "MET"),
    ("COc1ccc(S(=O)(=O)N(CCO)c2ccccc2CN(C)C/C=C/c2ccc(Cl)cc2)cc1.O=P(O)(O)O", "U2OS", "NOT MET"),
]

----------
Tested on: HEK-293T
Assay: Multiplex assay against HEK293T
Type: toxicity, cell-based
Conditions: human, 24 h, 10 µM, compound concentration 10 uM, replicate 2
Classification by Population Hoechst High Intensity Objects (%) follows these ranges: one (below 3%), two (3% to below 5%), three (5% or more)

# Molecule, Class Label
measured = [
    ("CCOC(=O)c1c(C)[nH]c2ccc3c(c12)CN1CCc2cc(OC)ccc2C1O3 (stereo unspecified)", "three"),
    ("CCCn1c(=O)c2[nH]c(-c3cnn(Cc4cccc(C(F)(F)F)c4)c3)nc2n(CC)c1=O [GS 6201]", "one"),
    ("CN1CCC(=C2c3ccccc3CC(=O)c3sccc32)CC1.O=C(O)/C=C/C(=O)O [KETOTIFEN FUMARATE]", "two"),
    ("C=C1/C(=C\\C=C2/CCC[C@]3(C)[C@@H]([C@H](C)/C=C/[C@H](C)C(C)C)CC[C@@H]23)C[C@@H](O)C[C@@H]1O [DOXERCALCIFEROL]", "one"),
    ("CN1C2CCC1CC(OC(c1ccc(F)cc1)c1ccc(F)cc1)C2.Cl (stereo unspecified)", "three"),
    ("CN(C)C(=O)C(CCN1CCC(O)(c2ccc(Cl)cc2)CC1)(c1ccccc1)c1ccccc1.Cl [LOPERAMIDE HYDROCHLORIDE]", "three"),
    ("O=C(Nc1ccc(-n2nc(-c3cccnc3)cc2C(F)(F)F)cn1)c1ccc(-c2ccccc2)c(F)c1 [BI 2049]", "one"),
    ("CCOc1cc(C(=O)N2CCC(N3CCN(C)CC3)CC2)ccc1Nc1ncc2c(n1)N(C1CCCC1)c1ccccc1C(=O)N2C", "three"),
    ("CCOc1cc2ncc(C#N)c(Nc3ccc(OCc4ccccn4)c(Cl)c3)c2cc1NC(=O)/C=C/CN(C)C [NERATINIB]", "three"),
    ("Cc1ccc(C(=O)Nc2cccc(C(F)(F)F)c2)cc1Nc1nc(-c2cccnc2)nc2c1cnn2C", "two"),
    ("COc1ccc(S(=O)(=O)N(CCO)c2ccccc2CN(C)C/C=C/c2ccc(Cl)cc2)cc1.O=P(O)(O)O", "one"),
    ("CCn1c(=O)c(-c2ccc(-c3cncs3)cc2Cl)cc2cnc(Nc3ccc(N4CCN(C)CC4)cc3)nc21", "two"),
]

----------
Test system: HEK-293T
Assay: Multiplex assay against HEK293T;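 on Population Tubulin-Different-Phenotype (%): share of the cells with healthy nuclei that show this phenotype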
Type: toxicity, cell-based
Settings: human, 12 h, 1 µM, compound concentration 1 uM, replicate 2
Classification field: Fulfilled = Population Tubulin-Different-Phenotype (%) at or over 60%; Not fulfilled = Population Tubulin-Different-Phenotype (%) under 60%.

# Compound, Class Label
rows = [
    ("O=C(Nc1ccc(-n2nc(-c3cccnc3)cc2C(F)(F)F)cn1)c1ccc(-c2ccccc2)c(F)c1", "Not fulfilled"),
    ("CCOC(=O)c1c(C)[nH]c2ccc3c(c12)CN1CCc2cc(OC)ccc2C1O3 (stereo not given)", "Fulfilled"),
    ("CNC(=O)c1ccc(Nc2nc(OC3CCCC3)c3c(-c4ccc5nc(C)oc5c4)c[nH]c3n2)c(OC)c1", "Fulfilled"),
    ("Cc1ccc(C(=O)Nc2cccc(C(F)(F)F)c2)cc1Nc1nc(-c2cccnc2)nc2c1cnn2C", "Fulfilled"),
    ("CCc1cccc(CC)c1NC(=O)c1nn(C)c2c1CCc1cnc(Nc3ccc(C(=O)NC4CCN(C)CC4)cc3OC(F)(F)F)nc1-2", "Fulfilled"),
    ("NC(=O)c1cccc(-c2cc(Nc3ccc(OC(F)(F)F)cc3)ncn2)c1", "Not fulfilled"),
    ("Cl.Oc1ccc2c3c1O[C@H]1c4[nH]c5c(c4C[C@@]4(O)[C@@H](C2)N(CC2CC2)CC[C@]314)C[C@@]1(O)[C@H]2Cc3ccc(O)c4c3[C@@]1(CCN2CC1CC1)[C@H]5O4", "Not fulfilled"),
    ("O=C(Nc1cccnn1)N1CCC(=Cc2cccc(Oc3ccc(C(F)(F)F)cn3)c2)CC1", "Fulfilled"),
    ("CCc1cccc(CC)c1NC(=O)c1nn(C)c2c1CCc1cnc(Nc3ccc(N4CCN(C)CC4)cc3OC)nc1-2", "Fulfilled"),
    ("CCNc1cc(N[C@H]2CC[C@H](O)CC2)nc(Nc2ccc3c(ccn3Cc3ccccc3)c2)n1", "Fulfilled"),
    ("CN[C@@H]1C[C@H]2O[C@@](C)([C@@H]1OC)n1c3ccccc3c3c4c(c5c6ccccc6n2c5c31)C(=O)NC4", "Fulfilled"),
    ("CCn1c(=O)c(-c2ccc(-c3cncs3)cc2Cl)cc2cnc(Nc3ccc(N4CCN(C)CC4)cc3)nc21", "Not fulfilled"),
    ("O=C(Nc1ccc(Cl)cc1)Nc1cccc(-c2cccc(N3CCCC3)n2)c1", "Not fulfilled"),
    ("CN1CCN(C(=O)C(C)(C)c2ccc(C(=O)Nc3cn4cc(-c5cc(C(C)(C)C)cc(C(C)(C)C)c5)ccc4n3)cc2)CC1", "Not fulfilled"),
]

Measured values drawn from ChEMBL document CHEMBL4689842 for this set.
